# Test system: M. globosa
# assay explanation: Agar dilution test on mDixon agar, minimal inhibitory concentration (MIC)
# Assay type: cell-based
# run conditions: Malassezia globosa, CBS7966, 336 h; M. globosa CBS 7966; agar dilution, pH 5.5, 32° C., up to 14 days; read-out: Minimal inhibitory concentration (MIC)
assay readout: MIC (µg/mL)
Use µg/mL as the unit, but write only the number.

Examples from the recorded data:
> print(dat)
                                   compound  assay.readout  experimental.value
1         CCCCCCCC(=O)OCC [Ethyl caprylate]            MIC                1000
2  C=CCCCCCCCCC(=O)OCC(O)CO (stereo not drawn) [Glyceryl monoundecylenoate]            MIC                2000
3  C=CCCCCCCCCC(=O)OCC [Ethyl undecylenoate]            MIC               10000

Give M. globosa MIC for CCCC(O)CO (stereo not drawn) [1,2-Pentandiol]
10000

Give M. globosa MIC for C=CCCCCCCCCC(=O)OCCCO [3-Hydroxypropyl undecylenoate]
2000

Give M. globosa MIC for CCCCCCC(O)CO (stereo not drawn) [1,2-Octandiol]
2000

Where these numbers come from: patent US12274775B2
